Test system: GP2d cells
experimentSummary: Inhibition of 3D proliferation of GP2d cells (CellTiter-Glo 3D)
Assay type: cell-based
conditionDescription: 120 h, 5 days
pIC50: −log10 of the molar value.
Class label 1: pIC50 at least 9. Class label 0: pIC50 below 9.

Consider the following illustrative entries.
C[C@@H]1Oc2nc(-c3ccc(F)c4sc(N)c(C#N)c34)c(F)c3nc(OCC4(CN5CCC(=CF)CC5)CC4)nc(c23)N2C[C@H]3CC[C@H](N3)[C@@H]12 [Example 37]	label 1
CCc1c(F)ccc2cc(O)cc(-c3nc4c5c(nc(OCC6(CN7CCC(=CF)CC7)CC6)nc5c3F)N3C[C@H]5CC[C@H](N5)[C@H]3[C@H](C)O4)c12 [Example 23]	label 1
C[C@@H]1Oc2nc(-c3cc(N)cc(Cl)c3C(F)(F)F)c(F)c3nc(OCC4(CN5CCC(=C(F)F)CC5)CC4)nc(c23)N2C[C@H]3CC[C@H](N3)[C@@H]12 [Example 39]	label 1

Is the recorded value of pIC50 equal to or greater than 9 for this compound? Cc1nc(N)cc(-c2nc3c4c(nc(OCC5(CN6CCC(=CF)CC6)CC5)nc4c2F)N2C[C@H]4CC[C@H](N4)[C@H]2[C@H](C)O3)c1C(F)(F)F [Example 42]
label 1

hey, is pIC50 for this one >= 9? CCc1c(F)ccc2cc(O)cc(-c3nc4c5c(nc(OCC6(CN7CCOCC7)CC6)nc5c3F)N3C[C@H]5CC[C@H](N5)[C@H]3CO4)c12 [Example 1]
label 0

* * *

experimentSummary: Pharmacokinetic evaluation in balb/c nude mice after intragastric administration
Assay type: in vivo
conditionDescription: female, mouse, po, i.g., 40.0 mg/kg, plasma, read-out: Apparent distribution volume Vz/F
quantityName: Vd/F (L/kg)
Hi! Could you send only the number? It should be in L/kg, unit omitted.

C[C@@H]1Oc2nc(-c3ccc(F)c4sc(N)c(C#N)c34)c(F)c3nc(OCC4(CN5CCC(=CF)CC5)CC4)nc(c23)N2C[C@H]3CC[C@H](N3)[C@@H]12 [Example 37]	78

Record C[C@@H]1Oc2nc(-c3cc(N)cc(Cl)c3C(F)(F)F)c(F)c3nc(OCC4(CN5CCC(=C(F)F)CC5)CC4)nc(c23)N2C[C@H]3CC[C@H](N3)[C@@H]12 [Example 39] , field Vd/F: 64.2

* * *

System: AGS cells
experimentSummary: Inhibition of 3D proliferation of AGS cells (CellTiter-Glo 3D)
Type: cell-based
conditionDescription: Homo sapiens, 120 h, 5 days
quantityName: IC50 (nM)
Quick reminder: number only, in nM, skip the unit.

C[C@@H]1Oc2nc(-c3cc(N)cc(Cl)c3C(F)(F)F)c(F)c3nc(OCC4(CN5CCC(=C(F)F)CC5)CC4)nc(c23)N2C[C@H]3CC[C@H](N3)[C@@H]12	6.7
CCc1c(F)ccc2cc(O)cc(-c3nc4c5c(nc(OCC6(CN7CCOCC7)CC6)nc5c3F)N3C[C@H]5CC[C@H](N5)[C@H]3[C@H](C)O4)c12	8.7
Cc1cc(N)c(F)c(-c2nc3c4c(nc(OCC5(CN6CCC(=CF)CC6)CC5)nc4c2F)N2C[C@H]4CC[C@H](N4)[C@H]2[C@H](C)O3)c1C(F)(F)F	5
C[C@@H]1Oc2nc(-c3cc(N)cc(Cl)c3C(F)(F)F)c(F)c3nc(OCC4(CN5CCC(=CF)CC5)CC4)nc(c23)N2C[C@H]3CC[C@H](N3)[C@@H]12	0.9
Cc1nc(N)cc(-c2nc3c4c(nc(OCC5(CN6CCC(=CF)CC6)CC5)nc4c2F)N2C[C@H]4CC[C@H](N4)[C@H]2[C@H](C)O3)c1C(F)(F)F	5.2
CCc1c(F)ccc2cc(O)cc(-c3nc4c5c(nc(OCC6(CN7CCOCC7)CC6)nc5c3F)N3C[C@H]5CC[C@H](N5)[C@H]3CO4)c12	16.7

Alright, here's another compound for you.
compound `C[C@@H]1Oc2nc(-c3ccc(F)c4sc(N)c(C#N)c34)c(F)c3nc(OCC4(CN5CCC(=CF)CC5)CC4)nc(c23)N2C[C@H]3CC[C@H](N3)[C@@H]12` , IC50 observed: 4.7
